Biological target: histidine tagged recombinant human full-length Bruton Agammaglobulinemia Tyrosine Kinase (Btk) (Homo sapiens)
Construct: recombinant human full-length Bruton Agammaglobulinemia Tyrosine Kinase (Btk); histidine tag
Experiment: Btk kinase inhibition assay (fluorescence polarization, KinEASE FP Fluorescein Green)
Assay type: biochemical
Settings: 10 μM ATP, 250 μM substrate, 60 minutes, room temperature; Ki from IC50 by Cheng-Prusoff; read-out: ki50 (nM), Inhibition of Btk
metric-name: Ki

1. CC1OCc2c1c1ncnc(N)c1n2-c1ccc(Oc2cccc(NCc3ccccc3)c2)cc1 (stereo not shown)	< 100 nM
2. CC1OCc2c1c1ncnc(N)c1n2-c1ccc(Oc2cccc(Cl)c2)cc1 (stereo not shown)	< 1000 nM
3. COc1cccc(OCc2cccc(Oc3ccc(-n4c5c(c6ncnc(N)c64)C(C)OC5)cc3)c2)c1 (stereo not shown)	< 100 nM
4. CC1OCc2c1c1ncnc(N)c1n2-c1ccc(Oc2cccc(OCc3ccc(Cl)cc3)c2)cc1 (stereo not shown)	< 100 nM

###

Listing of entries alongside the reported Ki.
Target: histidine tagged recombinant human full-length Bruton Agammaglobulinemia Tyrosine Kinase (Btk) (Homo sapiens, UniProt Q06187)
Construct: recombinant human full-length Bruton Agammaglobulinemia Tyrosine Kinase (Btk); histidine tag
Sequence (Q06187 whole entry): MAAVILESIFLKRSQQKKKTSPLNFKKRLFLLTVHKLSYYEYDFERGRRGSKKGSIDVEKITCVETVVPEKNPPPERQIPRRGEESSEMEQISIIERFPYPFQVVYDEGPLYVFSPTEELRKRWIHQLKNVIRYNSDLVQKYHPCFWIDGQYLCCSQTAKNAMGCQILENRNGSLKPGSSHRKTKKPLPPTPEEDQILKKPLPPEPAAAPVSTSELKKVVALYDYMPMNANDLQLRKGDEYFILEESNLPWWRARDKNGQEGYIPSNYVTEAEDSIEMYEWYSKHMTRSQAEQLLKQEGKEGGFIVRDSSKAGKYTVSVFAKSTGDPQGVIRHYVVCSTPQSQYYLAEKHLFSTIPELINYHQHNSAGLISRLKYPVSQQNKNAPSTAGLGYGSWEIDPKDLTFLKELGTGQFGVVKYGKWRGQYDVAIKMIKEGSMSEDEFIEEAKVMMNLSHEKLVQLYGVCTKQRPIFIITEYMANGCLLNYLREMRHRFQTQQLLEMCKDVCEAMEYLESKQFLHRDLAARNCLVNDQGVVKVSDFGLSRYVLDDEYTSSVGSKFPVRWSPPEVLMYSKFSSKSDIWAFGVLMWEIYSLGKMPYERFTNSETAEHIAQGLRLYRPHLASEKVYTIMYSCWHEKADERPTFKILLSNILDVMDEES
Assay: Btk kinase inhibition assay (fluorescence polarization, KinEASE FP Fluorescein Green)
Type: biochemical
Conditions: 10 μM ATP, 250 μM substrate, 60 minutes, room temperature; Ki from IC50 by Cheng-Prusoff; read-out: ki50 (nM), Inhibition of Btk
metric-name: Ki

1. Nc1ncnc2c3c(n(-c4ccc(Cc5ccccc5)cc4)c12)CCC3	> 1000 nM
2. CC1OCc2c1c1ncnc(N)c1n2-c1ccc(Oc2cccc([N+](=O)[O-])c2)cc1 (centres unmarked)	> 1000 nM
3. Nc1ncnc2c3c(n(-c4ccc(Oc5ccccc5)cc4)c12)COC3	< 1000 nM
4. COc1ccc(C(=O)Nc2cccc(Oc3ccc(-n4c5c(c6ncnc(N)c64)C(C)OC5)cc3)c2)cc1 (centres unmarked)	< 1000 nM
5. CC1OCc2c1c1ncnc(N)c1n2-c1ccc(Oc2ccccc2Cl)cc1 (centres unmarked)	< 1000 nM
6. Nc1ncnc2c3c(n(-c4ccc(Oc5ccccc5)cc4)c12)CCNC3	> 1000 nM
7. Nc1ncnc2c3c(n(-c4ccc(Oc5ccc(Cl)cc5)cc4)c12)CCC3	< 1000 nM
8. Nc1ncnc2c3c(n(-c4ccc(Oc5ccccc5)cc4)c12)CS(=O)(=O)C3	> 1000 nM

###

Molecular target: histidine tagged recombinant human full-length Bruton Agammaglobulinemia Tyrosine Kinase (Btk) (Homo sapiens, UniProt Q06187)
Construct: recombinant human full-length Bruton Agammaglobulinemia Tyrosine Kinase (Btk); histidine tag
Test: Btk kinase inhibition assay (fluorescence polarization, KinEASE FP Fluorescein Green)
Type: biochemical
Details: 10 μM ATP, 250 μM substrate, 60 minutes, room temperature; Ki from IC50 by Cheng-Prusoff; read-out: ki50 (nM), Inhibition of Btk
metric-name: Ki

1. CC1OCc2c1c1ncnc(N)c1n2-c1ccc(Oc2cccc(O[C@H](C)c3ccccc3)c2)cc1 (some centres unmarked)	< 1000 nM
2. Cc1nc(-c2cccc(Oc3ccc(-n4c5c(c6ncnc(N)c64)CCC5)cc3)c2)cs1	< 100 nM
3. CC1OCc2c1c1ncnc(N)c1n2-c1ccc(Oc2cccc(OCc3cccnc3)c2)cc1 (centres unmarked)	< 100 nM
4. Nc1ncnc2c3c(n(-c4ccc(Oc5ccc(Br)cc5)cc4)c12)CCC3	< 1000 nM
5. CC1OCc2c1c1ncnc(N)c1n2-c1ccc(Oc2cccc(OCCC3CCCCC3)c2)cc1 (centres unmarked)	< 100 nM
6. Nc1ncnc2c3c(n(-c4ccc(Oc5cccc(OCc6cccnc6)c5)cc4)c12)CCC3	< 100 nM
7. CC1OCc2c1c1ncnc(N)c1n2-c1ccc(Oc2cccc(O[C@@H](C)c3ccccc3)c2)cc1 (some centres unmarked)	< 100 nM
8. CC1OCc2c1c1ncnc(N)c1n2-c1ccc(Oc2cccc(OCc3cccc(N)c3)c2)cc1 (centres unmarked)	< 100 nM
9. N#Cc1ccccc1OCc1cccc(Oc2ccc(-n3c4c(c5ncnc(N)c53)CCC4)cc2)c1	< 100 nM
10. CC1OCc2c1c1ncnc(N)c1n2-c1ccc(Oc2cccc(OCC3CCOCC3)c2)cc1 (centres unmarked)	< 100 nM
11. CC1OCc2c1c1ncnc(N)c1n2-c1ccc(Oc2cccc(OCc3ccc(C(F)(F)F)cc3)c2)cc1 (centres unmarked)	< 100 nM
12. CC1OCc2c1c1ncnc(N)c1n2-c1ccc(Oc2cccc(OCCN3CCCC3)c2)cc1 (centres unmarked)	> 1000 nM
13. Nc1ncnc2c3c(n(-c4ccc(Oc5ccccc5)cc4)c12)CCCC3	< 1000 nM
14. CC1OCc2c1c1ncnc(N)c1n2-c1ccc(Oc2cccc(C(N)=O)c2)cc1 (centres unmarked)	> 1000 nM
15. Nc1ncnc2c3c(n(-c4ccc(Oc5ccccc5)cc4)c12)COC3c1ccccc1 (centres unmarked)	< 100 nM
16. COc1ccccc1C(=O)Nc1cccc(Oc2ccc(-n3c4c(c5ncnc(N)c53)C(C)OC4)cc2)c1 (centres unmarked)	< 100 nM
17. CC1OCc2c1c1ncnc(N)c1n2-c1ccc(Oc2cccc(OCc3ccccc3F)c2)cc1 (centres unmarked)	< 100 nM
18. CC1OCc2c1c1ncnc(N)c1n2-c1ccc(Oc2cccc(N3CCOCC3)c2)cc1 (centres unmarked)	< 1000 nM
19. CCC1OCc2c1c1ncnc(N)c1n2-c1ccc(Oc2ccccc2)cc1 (centres unmarked)	< 1000 nM
20. CC1OCc2c1c1ncnc(N)c1n2-c1ccc(Oc2cccc(OCc3cccc(C#N)c3)c2)cc1 (centres unmarked)	< 100 nM
21. CC(C)COc1cccc(Oc2ccc(-n3c4c(c5ncnc(N)c53)C(C)OC4)cc2)c1 (centres unmarked)	< 100 nM
22. Nc1ncnc2c3c(n(-c4ccc(Oc5ccccc5)cc4)c12)CN(C(=O)OCc1ccccc1)C3	> 1000 nM
23. COCC(=O)Nc1cccc(COc2cccc(Oc3ccc(-n4c5c(c6ncnc(N)c64)C(C)OC5)cc3)c2)c1 (centres unmarked)	< 100 nM
24. CC1OCc2c1c1ncnc(N)c1n2-c1ccc(Oc2cccc(OCc3cccc(C(N)=O)c3)c2)cc1 (centres unmarked)	< 100 nM
25. CCNc1cccc(Oc2ccc(-n3c4c(c5ncnc(N)c53)C(C)OC4)cc2)c1 (centres unmarked)	< 1000 nM
26. CC1OCc2c1c1ncnc(N)c1n2-c1ccc(Oc2ccccc2F)cc1 (centres unmarked)	< 100 nM
27. CC1OCc2c1c1ncnc(N)c1n2-c1ccc(Oc2cccc(N(C)C)c2)cc1 (centres unmarked)	< 1000 nM
28. CC1OCc2c1c1ncnc(N)c1n2-c1ccc(Oc2cccc(OCC3CCCC3)c2)cc1 (centres unmarked)	< 1000 nM
29. CC(=O)Nc1cccc(Oc2ccc(-n3c4c(c5ncnc(N)c53)C(C)OC4)cc2)c1 (centres unmarked)	< 1000 nM
30. CC1OCc2c1c1ncnc(N)c1n2-c1ccc(Oc2cccc(OCCN(C)C)c2)cc1 (centres unmarked)	> 1000 nM
31. COc1ccc(OCc2cccc(Oc3ccc(-n4c5c(c6ncnc(N)c64)C(C)OC5)cc3)c2)cc1 (centres unmarked)	< 100 nM
32. CC1OCc2c1c1ncnc(N)c1n2-c1ccc(Oc2cccc(NC(=O)Cc3ccccc3)c2)cc1 (centres unmarked)	< 100 nM

All figures here come from patent US9624239B2.
